study target: Cytochrome P450 3A4 (Homo sapiens)
assay remarks: qHTS Assay for Activators of Cytochrome P450 3A4 (AID 885); further: nearly all actives have a fitted effect of over 65% in size
cond: recombinant CYP3A4, Luciferin-PPXE luminescence, 60 min; series mostly up to 57.1 µM
The source made the active and inactive calls. The call rests on the fitted dose curve; in most records, active means well fitted activation curve with a large enough effect; inconclusive means small, poorly fitted or top-dose-only effect; inactive means no such curve, though single readings can be large or run the other way.
The categories you may choose from are True for active, False for inactive

Q) Recorded test outcome, item `COc1ccccc1CNc1cc(-c2cccc(C#N)c2)ncn1`
A) False

Q) Recorded test outcome, item `COc1ccc(C(=O)N2CCC3(CCCN(c4ncccn4)C3)CC2)cc1`
A) False

Q) Recorded test outcome, item `COc1ccccc1CN1CCCC2(CCN(C(=O)c3cnccn3)CC2)C1`
A) False

Q) Recorded test outcome, item `CCNc1ncc2nc(-c3cc(F)cc(F)c3)c(=O)n(-c3ccc(OC)cc3)c2n1`
A) False

Q) Recorded test outcome, item `COc1ccc(CNc2nc(-c3ccc(C(=O)N(C)C)cc3)nc3ccccc23)c(OC)c1`
A) False

Q) Recorded test outcome, item `CN(Cc1ccco1)c1ccnc(-c2cccc(NS(C)(=O)=O)c2)n1`
A) False

Q) Recorded test outcome, item `CN(C)c1ncc2nc(-c3cc(F)cc(F)c3)c(=O)n(Cc3cccs3)c2n1`
A) False

Q) Recorded test outcome, item `O=C(c1ccco1)N1CCC2(CCCN(c3ccccn3)C2)CC1`
A) False

Q) Recorded test outcome, item O=c1c(O)c(-c2ccc(O)c(O)c2)oc2c(OC3OC(CO)C(O)C(O)C3O)c(O)cc(O)c12 (stereo unspecified)
A) False

Q) Recorded test outcome, item `COc1ccc(-n2c(=O)c(C)nc3cnc(N(C)C)nc32)cc1`
A) False

Q) Recorded test outcome, item `O=C(Nc1cccc(F)c1)N1CCCC2(CCN(C(=O)c3cnccn3)CC2)C1`
A) False

Q) Recorded test outcome, item `COC(=O)N1CCC2(CC1)CCN(C(c1ccccc1)c1ccccc1)CC2`
A) True

Q) Recorded test outcome, item `COc1cccc(Nc2ncc3nc(CCc4ccccc4)c(=O)n(CCC#N)c3n2)c1`
A) False

Q) Recorded test outcome, item `COc1cccc(-c2nc(NCc3ccccc3OC)c3ccccc3n2)c1`
A) False

Q) Recorded test outcome, item `Cc1cnc(CNc2ccnc(-c3ccc(N(C)C)cc3)n2)cn1`
A) False

Q) Recorded test outcome, item `COc1ccc(Oc2ncc3nc(C)c(=O)n(C)c3n2)cc1`
A) False

====

assay remarks: Stat Signaling Pathway (AID 446);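 further: ME-180 cervical cancer cells given 40 pM IL-6 alongside compound; SIE-controlled beta-lactamase reporter measured as 460/530 nm FRET emission ratio; on the % scale 0 is the no-effect control and ±100 the full control effect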
cond: ME-180 (cervical carcinoma) SIE beta-lactamase reporter, IL-6 stimulated, 5 h; at 7.69 µM (top of the series) unless noted
Records with an inconclusive call do not appear.
parameter measured: activity, negative = inhibition (%)
Number only, in %; omit the unit.

Reported activity, negative = inhibition ( `O=C(c1cc(C(F)(F)F)cc(C(F)(F)F)c1)N1CCC2(CC1)CN(c1ncccn1)C2` ) = 1.12

Reported activity, negative = inhibition ( `COC(=O)N1CCC2(CCCN(C(c3ccccc3)c3ccccc3)C2)CC1` ) = 13.3

Reported activity, negative = inhibition ( `CS(=O)(=O)N1CCC2(CC1)CN(c1ccc(-c3ccccc3)cc1)C2` ) = -25.1

Reported activity, negative = inhibition ( `O=c1c(-c2cccc(F)c2)nc2cncnc2n1C1CC1` ) = 1.43

Reported activity, negative = inhibition ( `CN(C)Cc1ccccc1-c1ccc2ncnc(N(C)Cc3ccco3)c2c1` ) = -16.1

Reported activity, negative = inhibition ( `COC(=O)N1CCC2(CCCN(Cc3ccccc3)C2)CC1` ) = 2.77

Reported activity, negative = inhibition ( `COCC(=O)N1CCC2(CCCN(c3ncccn3)C2)CC1` ) = -7.69

Reported activity, negative = inhibition ( `COc1ccccc1CNc1nc(-c2ccc3c(c2)OCO3)nc2ccccc12` ) = -8.69

Reported activity, negative = inhibition ( `COc1ccccc1-c1cncnc1N(C)Cc1ccco1` ) = 17

Reported activity, negative = inhibition ( `Cc1cnc(CNc2ccnc(-c3cccc(C#N)c3)n2)cn1` ) = 6.8

Reported activity, negative = inhibition ( `COc1ccc(C(=O)N2CCC[C@@]3(CCN(Cc4nccs4)C3)C2)cc1` ) = -1.52

Reported activity, negative = inhibition ( `N#Cc1ccc(CN2CCC3(CC2)CCN(C(=O)c2cccc(F)c2)CC3)cc1` ) = 8.5

Reported activity, negative = inhibition ( `O=C(c1cccc(F)c1)N1CCC2(CCCN(C(c3ccccc3)c3ccccc3)C2)CC1` ) = 17.2

Reported activity, negative = inhibition ( `CS(=O)(=O)N1CCC2(CC1)CN(C(c1ccccc1)c1ccccc1)C2` ) = -5.62

Reported activity, negative = inhibition ( `CN(C)C(=O)c1ccc(-c2ccc3ncnc(NCc4cccnc4)c3c2)cc1` ) = -1.99

Reported activity, negative = inhibition ( `O=C(Oc1ccccc1)N1CCC2(CC1)CN(c1ccncc1)C2` ) = -4.7

Reported activity, negative = inhibition ( `CN(C)Cc1ccccc1-c1ccc2ncnc(NCc3cccs3)c2c1` ) = -19.4

Reported activity, negative = inhibition ( `CN1CCCC2(CCN(C(=O)c3cc(C(F)(F)F)cc(C(F)(F)F)c3)CC2)C1` ) = 4.14

Reported activity, negative = inhibition ( `COc1ccc(Oc2ncc3nc(-c4ccc(F)cc4)c(=O)n(Cc4cccs4)c3n2)cc1` ) = -8.36

Reported activity, negative = inhibition ( `O=c1c(-c2ccc(F)cc2)nc2cncnc2n1-c1ccccc1` ) = -3.31
